tested on: methicillin resistant Staphylococcus epidermidis (ATCC 51625); assay: MIC, serial broth dilution; assay type: cell-based; conditions: MHB, 18 h, 37° C.
MIC MRSE (ATCC 51625) strictly less than 7 ng/mL = true. Otherwise false.

Compound: CCCCCC=CCC=CCCCCCCCC(=O)NCCCN(CCCCN(CCCN)C(=O)C(N)Cc1c[nH]c2ccccc12)C(=O)C(N)Cc1c[nH]c2ccccc12 (stereo not shown) [2f]
Class label: true
--
Compound: CCCCCCCCCCCC(=O)NCCCN(CCCCN(CCCN)C(=O)C(N)Cc1c[nH]c2ccccc12)C(=O)C(N)Cc1c[nH]c2ccccc12 (stereo not shown) [2e]
Class label: true
--
Compound: CCCCCCCCCCCC(=O)NC(Cc1c[nH]c2ccccc12)C(=O)NC(Cc1c[nH]c2ccccc12)C(=O)NCCCNCCCCNCCCN (stereo not shown) [1e]
Class label: true
--
Compound: NCCCNCCCCNCCCNC(=O)C(Cc1c[nH]c2ccccc12)NC(=O)C(Cc1c[nH]c2ccccc12)NC(=O)Cc1ccc(C(F)(F)F)cc1 (stereo not shown) [1c]
Class label: true
--
Compound: NCCCN(CCCCN(CCCN)C(=O)C(N)Cc1c[nH]c2ccccc12)C(=O)C(N)Cc1c[nH]c2ccccc12 (stereo not shown) [2a]
Class label: false
--
Compound: NCCCN(CCCCN(CCCNC(=O)Cc1ccc(C(F)(F)F)cc1)C(=O)C(N)Cc1c[nH]c2ccccc12)C(=O)C(N)Cc1c[nH]c2ccccc12 (stereo not shown) [2c]
Class label: false
--
Compound: CCCCCCCCCC(=O)NC(Cc1c[nH]c2ccccc12)C(=O)NC(Cc1c[nH]c2ccccc12)C(=O)NCCCNCCCCNCCCN (stereo not shown) [1d]
Class label: true
--
Compound: CCCCCCCCCC(=O)NCCCN(CCCCN(CCCN)C(=O)C(N)Cc1c[nH]c2ccccc12)C(=O)C(N)Cc1c[nH]c2ccccc12 (stereo not shown) [2d]
Class label: true

---

tested on: Enterococcus faecalis (ATCC 7080); experiment: MIC, serial broth dilution; type: cell-based; settings: MHB, 18 h, 37° C.
MIC E. facaelis (ATCC 7080) for assorted compounds

Compound: CCCCCCCCCC(=O)NCCCN(CCCCN(CCCN)C(=O)C(N)Cc1c[nH]c2ccccc12)C(=O)C(N)Cc1c[nH]c2ccccc12 (stereo not drawn) [2d]
Unit label: µg/mL
MIC E. facaelis (ATCC 7080): 0.0284
--
Compound: CCCCCC=CCC=CCCCCCCCC(=O)NCCCN(CCCCN(CCCN)C(=O)C(N)Cc1c[nH]c2ccccc12)C(=O)C(N)Cc1c[nH]c2ccccc12 (stereo not drawn) [2f]
Unit label: µg/mL
MIC E. facaelis (ATCC 7080): 0.0142
--
Compound: NCCCNCCCCNCCCNC(=O)C(Cc1c[nH]c2ccccc12)NC(=O)C(Cc1c[nH]c2ccccc12)NC(=O)C=Cc1ccc(O)c(O)c1 (stereo not drawn) [1b]
Unit label: µg/mL
MIC E. facaelis (ATCC 7080): 0.1136
--
Compound: CCCCCCCCCC(=O)NC(Cc1c[nH]c2ccccc12)C(=O)NC(Cc1c[nH]c2ccccc12)C(=O)NCCCNCCCCNCCCN (stereo not drawn) [1d]
Unit label: µg/mL
MIC E. facaelis (ATCC 7080): 0.0035
--
Compound: CCCCCC=CCC=CCCCCCCCC(=O)NC(Cc1c[nH]c2ccccc12)C(=O)NC(Cc1c[nH]c2ccccc12)C(=O)NCCCNCCCCNCCCN (stereo not drawn) [1f]
Unit label: µg/mL
MIC E. facaelis (ATCC 7080): 0.0284
--
Compound: CCCCCCCCCCCC(=O)NC(Cc1c[nH]c2ccccc12)C(=O)NC(Cc1c[nH]c2ccccc12)C(=O)NCCCNCCCCNCCCN (stereo not drawn) [1e]
Unit label: µg/mL
MIC E. facaelis (ATCC 7080): 0.0071
--
Compound: NCCCNCCCCNCCCNC(=O)C(Cc1c[nH]c2ccccc12)NC(=O)C(N)Cc1c[nH]c2ccccc12 (stereo not drawn) [1a]
Unit label: µg/mL
MIC E. facaelis (ATCC 7080): 0.4545
--
Compound: NCCCNCCCCNCCCNC(=O)C(Cc1c[nH]c2ccccc12)NC(=O)C(Cc1c[nH]c2ccccc12)NC(=O)Cc1ccc(C(F)(F)F)cc1 (stereo not drawn) [1c]
Unit label: µg/mL
MIC E. facaelis (ATCC 7080): 0.0284
--
Compound: CCCCCCCCCCCC(=O)NCCCN(CCCCN(CCCN)C(=O)C(N)Cc1c[nH]c2ccccc12)C(=O)C(N)Cc1c[nH]c2ccccc12 (stereo not drawn) [2e]
Unit label: µg/mL
MIC E. facaelis (ATCC 7080): 0.0071

---

increase in MIC after 17 passages for assorted molecules
system: S. aureus (ATCC 33591); experiment: Resistance development study, serial passage at sub MIC; format: cell-based, Staphylococcus aureus; details: 17 serial passages at sub MIC
Reported metric: increase in MIC after 17 passages (fold)

Molecule: CN[C@H](CC(C)C)C(=O)N[C@H]1C(=O)N[C@@H](CC(N)=O)C(=O)N[C@H]2C(=O)N[C@H]3C(=O)N[C@H](C(=O)N[C@H](C(=O)O)c4cc(O)cc(O)c4-c4cc3ccc4O)[C@H](O)c3ccc(c(Cl)c3)Oc3cc2cc(c3O[C@@H]2O[C@H](CO)[C@@H](O)[C@H](O)[C@H]2O[C@H]2C[C@](C)(N)[C@H](O)[C@H](C)O2)Oc2ccc(cc2Cl)[C@H]1O [VAN, vancomycin, reference compound]
Test value: 4

Molecule: NCCCNCCCCNCCCNC(=O)C(Cc1c[nH]c2ccccc12)NC(=O)C(Cc1c[nH]c2ccccc12)NC(=O)Cc1ccc(C(F)(F)F)cc1 (stereo not shown)
Test value: 4

Molecule: O=C(O)c1cn(C2CC2)c2cc(N3CCNCC3)c(F)cc2c1=O [ciprofloxacin, reference compound]
Test value: 256

Molecule: CCCCCCCCCC(=O)NC(Cc1c[nH]c2ccccc12)C(=O)NC(Cc1c[nH]c2ccccc12)C(=O)NCCCNCCCCNCCCN (stereo not shown)
Test value: 2

---

System: human red blood cells (hRBC)
Assay: Hemolytic activity
Type: cell-based
Conditions: 250 μg/mL, 1 h at 37° C.
Experimental: Hemolytic activity of the peptidomimetics was evaluated on human red blood cells (hRBC) as described previously with minor modifications [FEBS J, 273:4040-4054, 2006; Biochim Biophys Acta., 1798:1864-1875, 2010]. […] Absorbance was read at 540 nm using ELISA plate reader (Molecular Devices). Percent hemolysis was calculated using the following formula: % hemolysis=100[(A−A0)/(At−A0)] Where, A represents absorbance of sample wells at 540 nm. […]
Categories are defined by ranges of % H, percentage hemolysis of human RBCs, namely band 1 = under 4%, band 2 = from 4% up to 30%, band 3 = 30% and over

Compound: CCCCCC=CCC=CCCCCCCCC(=O)NCCCN(CCCCN(CCCN)C(=O)C(N)Cc1c[nH]c2ccccc12)C(=O)C(N)Cc1c[nH]c2ccccc12 (stereo not drawn) [2f]
Class label: band 3
//
Compound: NCCCNCCCCNCCCNC(=O)C(Cc1c[nH]c2ccccc12)NC(=O)C(Cc1c[nH]c2ccccc12)NC(=O)Cc1ccc(C(F)(F)F)cc1 (stereo not drawn) [1c]
Class label: band 1
//
Compound: CCCCCCCCCCCC(=O)NC(Cc1c[nH]c2ccccc12)C(=O)NC(Cc1c[nH]c2ccccc12)C(=O)NCCCNCCCCNCCCN (stereo not drawn) [1e]
Class label: band 3
//
Compound: NCCCN(CCCCN(CCCNC(=O)C=Cc1ccc(O)c(O)c1)C(=O)C(N)Cc1c[nH]c2ccccc12)C(=O)C(N)Cc1c[nH]c2ccccc12 (stereo not drawn) [2b]
Class label: band 2
//
Compound: CCCCCCCCCC(=O)NCCCN(CCCCN(CCCN)C(=O)C(N)Cc1c[nH]c2ccccc12)C(=O)C(N)Cc1c[nH]c2ccccc12 (stereo not drawn) [2d]
Class label: band 3
//
Compound: NCCCNCCCCNCCCNC(=O)C(Cc1c[nH]c2ccccc12)NC(=O)C(Cc1c[nH]c2ccccc12)NC(=O)C=Cc1ccc(O)c(O)c1 (stereo not drawn) [1b]
Class label: band 2
//
Compound: NCCCN(CCCCN(CCCN)C(=O)C(N)Cc1c[nH]c2ccccc12)C(=O)C(N)Cc1c[nH]c2ccccc12 (stereo not drawn) [2a]
Class label: band 1
//
Compound: CCCCCCCCCC(=O)NC(Cc1c[nH]c2ccccc12)C(=O)NC(Cc1c[nH]c2ccccc12)C(=O)NCCCNCCCCNCCCN (stereo not drawn) [1d]
Class label: band 2
//
Compound: CCCCCCCCCCCC(=O)NCCCN(CCCCN(CCCN)C(=O)C(N)Cc1c[nH]c2ccccc12)C(=O)C(N)Cc1c[nH]c2ccccc12 (stereo not drawn) [2e]
Class label: band 3
//
Compound: NCCCN(CCCCN(CCCNC(=O)Cc1ccc(C(F)(F)F)cc1)C(=O)C(N)Cc1c[nH]c2ccccc12)C(=O)C(N)Cc1c[nH]c2ccccc12 (stereo not drawn) [2c]
Class label: band 1
